Where do these numbers come from? They come from patent US9012626B2.

Experiment: Rate of dissolution in H2O at 25° C.
Type: physicochemical
Conditions: H2O at 25° C.
EXPERIMENTAL_READOUT: Rate of dissolution in H2O at 25° C. (grade in words)

// field: Rate of dissolution in H2O at 25° C. (grade in words); key: C=C1C[C@@]23CC[C@H]4[C@@](C)(CCC[C@@]4(C)C(=O)O[C@@H]4O[C@H](CO)[C@@H](O)[C@H](O)[C@H]4O)[C@@H]2CC[C@]1(O[C@@H]1O[C@H](CO)[C@@H](O)[C@H](O[C@@H]2O[C@H](CO)[C@@H](O)[C@H](O)[C@H]2O)[C@H]1O[C@@H]1O[C@H](CO)[C@@H](O)[C@H](O)[C@H]1O)C3 [Form 4, rebaudioside A] ; value = High

// field: Rate of dissolution in H2O at 25° C. (grade in words); key: C=C1C[C@@]23CC[C@H]4[C@@](C)(CCC[C@@]4(C)C(=O)O[C@@H]4O[C@H](CO)[C@@H](O)[C@H](O)[C@H]4O)[C@@H]2CC[C@]1(O[C@@H]1O[C@H](CO)[C@@H](O)[C@H](O[C@@H]2O[C@H](CO)[C@@H](O)[C@H](O)[C@H]2O)[C@H]1O[C@@H]1O[C@H](CO)[C@@H](O)[C@H](O)[C@H]1O)C3 [Form 3, rebaudioside A] ; value = High
